Result Type: melting point

> print(dat)
                                   molecule       measured
1  O=C(CCCc1ccc2ccccc2c1)Nc1nc2ccccc2[nH]1 [Compound 5f]    56 to 58 °C
2  c1ccc2cc(OCCNc3nc4ccccc4o3)ccc2c1 [Compound 23c]  152 to 153 °C
3  COC(CCc1ccc2ccccc2c1)Nc1nc2ccc(OC(F)(F)F)cc2s1 (stereo not shown) [Compound 18g]    78 to 80 °C
4  FC(F)(F)Oc1ccc2nc(NCCCc3ccc4ccccc4c3)sc2c1 [Compound 19g]  150 to 152 °C
5  O=C(CCCc1ccc2ccccc2c1)Nc1nc2ccccc2s1 [Compound 5a]    53 to 55 °C
6  c1ccc2c(CCCNc3nc4ccccc4s3)cccc2c1 [Compound 19d]  134 to 137 °C
7  c1ccc2c(CCCNc3nccs3)cccc2c1 [Compound 19e]    94 to 97 °C
8  c1ccc2cc(CCCNc3nc4ccccc4s3)ccc2c1 [Compound 19a]  112 to 114 °C
9  COc1ccc(CCC(=O)Nc2nc3ccccc3s2)cc1 [Compound 11]  172 to 174 °C

Q) Consider the molecule O=C(COc1ccc2ccccc2c1)Nc1nc2ccccc2s1 [Compound 7] and give its measured melting point.
A) 153 to 155 °C

---

We begin with a simple list: items and their reported inhibition at 3 µM.
- Test system: PGE2 generation in rat mesangial cells
- Procedure Text: Suppression of IL-1β/forskolin-stimulated PGE2 generation in rat renal mesangial cells
- Type: cell-based
- Test Conditions: Rattus norvegicus, Mesangial cell, 24 h, 3 μM; 1 nM IL-1β plus 5 μM forskolin
Write the number in % without appending the unit.

> print(dat)
                                   compound         result.type  measured
1  COc1ccc(CCCNc2nc3ccccc3s2)cc1 [Compound 19c]  inhibition at 3 µM        62

Q) Consider the compound FC(F)(F)Oc1ccc2nc(NCCCc3cccc4ccccc34)sc2c1 [Compound 19h] and give its measured inhibition at 3 µM.
A) 0

Q) Consider the compound COC(CCc1ccc2ccccc2c1)Nc1nc2ccccc2s1 (centres unmarked) [Compound 18a] and give its measured inhibition at 3 µM.
A) 46

Q) Consider the compound "O=C(CCCc1ccc2ccccc2c1)Nc1nc2ccccc2[nH]1" and give its measured inhibition at 3 µM.
A) 66

Q) Consider the compound FC(F)(F)Oc1ccc2nc(NCCCc3ccc4ccccc4c3)sc2c1 [Compound 19g] and give its measured inhibition at 3 µM.
A) 0

Q) Consider the compound "O=C(CCCc1ccc2ccccc2c1)Nc1nc2ccccc2o1" and give its measured inhibition at 3 µM.
A) 73

Q) Consider the compound "O=C(COc1ccc2ccccc2c1)Nc1nc2ccccc2s1" and give its measured inhibition at 3 µM.
A) 41

Q) Consider the compound COC(CCc1ccccc1)Nc1nc2ccccc2s1 (centres unmarked) [Compound 18b] and give its measured inhibition at 3 µM.
A) 0

Q) Consider the compound c1ccc(CCCNc2nccs2)cc1 [Compound 19f, N-(3-Phenylpropyl)Thiazol-2-Amine] and give its measured inhibition at 3 µM.
A) 20

Q) Consider the compound "O=C(/C=C/c1ccc2ccccc2c1)Nc1nc2ccccc2s1" and give its measured inhibition at 3 µM.
A) 28

Q) Consider the compound "O=C(CCCc1ccc2ccccc2c1)Nc1nc2ccccc2s1" and give its measured inhibition at 3 µM.
A) 50

Q) Consider the compound "O=C(CCc1ccc2ccccc2c1)Nc1nc2ccccc2[nH]1" and give its measured inhibition at 3 µM.
A) 29

Q) Consider the compound c1ccc2c(OCCNc3nc4ccccc4o3)cccc2c1 [Compound 23d] and give its measured inhibition at 3 µM.
A) 45

Q) Consider the compound "O=C(CCc1ccc2ccccc2c1)Nc1nc2ccccc2o1" and give its measured inhibition at 3 µM.
A) 49

---

We begin with a simple list: items and their reported melting point.

> print(dat)
                                   molecule     measured
1  O=C(CCc1ccc2ccccc2c1)Nc1nc2ccccc2s1 [Compound 5b]  46 to 48 °C

Q) Consider the molecule O=C(CCc1ccc2ccccc2c1)Nc1nc2ccccc2[nH]1 [Compound 5e] and give its measured melting point.
A) 47 to 49 °C

Q) Consider the molecule c1ccc2c(OCCNc3nc4ccccc4o3)cccc2c1 [Compound 23d] and give its measured melting point.
A) 164 to 166 °C

Q) Consider the molecule O=C(/C=C/c1ccc2ccccc2c1)Nc1nc2ccccc2s1 [Compound 9a] and give its measured melting point.
A) 228 to 230 °C

Q) Consider the molecule COC(CCc1cccc2ccccc12)Nc1nc2ccc(OC(F)(F)F)cc2s1 (centres unmarked) [Compound 18h] and give its measured melting point.
A) 100 to 102 °C

---

- System: PGE2 generation in rat mesangial cells
- Procedure Text: Suppression of IL-1β/forskolin-stimulated PGE2 generation in rat renal mesangial cells
- Format: cell-based
- Test Conditions: Rattus norvegicus, Mesangial cell, 24 h, 3 μM; 1 nM IL-1β plus 5 μM forskolin
We begin with a simple list: items and their reported inhibition at 3 µM.
Write the number in % without appending the unit.

Solved cases (3 shown):
> print(dat)
                                   compound  value.units  measured
1  COc1ccc(COC(=O)Nc2nc3ccccc3s2)cc1 [Compound 16a]            %        15
2  COc1ccc(/C=C/C(=O)Nc2nc3ccccc3s2)cc1 [Compound 9b]            %        25
3  O=C(Nc1nc2ccccc2s1)OCc1ccc2ccccc2c1 [Compound 16b]            %        39

Q) Entry O=C(NCCCc1ccc2ccccc2c1)c1nc2ccccc2s1 [Compound 14] , system PGE2 generation in rat mesangial cells: what inhibition at 3 µM was measured?
A) 64

Q) Entry c1ccc2c(OCCNc3nc4ccccc4s3)cccc2c1 [Compound 25b] , system PGE2 generation in rat mesangial cells: what inhibition at 3 µM was measured?
A) 57

Q) Entry COc1ccc(CCC(Nc2nc3ccccc3s2)OC)cc1 (stereo not shown) [Compound 18c] , system PGE2 generation in rat mesangial cells: what inhibition at 3 µM was measured?
A) 0

Q) Entry c1ccc2cc(OCCNc3nc4ccccc4s3)ccc2c1 [Compound 25a] , system PGE2 generation in rat mesangial cells: what inhibition at 3 µM was measured?
A) 63

Q) Entry COc1ccc(CCCNc2nc3ccccc3o2)cc1 [Compound 23b] , system PGE2 generation in rat mesangial cells: what inhibition at 3 µM was measured?
A) 79

---

We begin with a simple list: items and their reported melting point.

> print(dat)
                                   compound    result.type     measured
1  COc1ccc(CCCNc2nc3ccccc3o2)cc1 [Compound 23b]  melting point  85 to 87 °C

Q) Consider the compound c1ccc(CCCNc2nc3ccccc3s2)cc1 [Compound 19b] and give its measured melting point.
A) 99 to 102 °C

Q) Consider the compound COc1ccc(CCCNc2nc3ccccc3s2)cc1 [Compound 19c] and give its measured melting point.
A) 104 to 106 °C

Q) Consider the compound "O=C(CCc1ccc2ccccc2c1)Nc1nc2ccccc2o1" and give its measured melting point.
A) 49 to 51 °C

---

We begin with a simple list: items and their reported melting point.

> print(dat)
                                   compound    result.type       measured
1  FC(F)(F)Oc1ccc2nc(NCCCc3cccc4ccccc34)sc2c1 [Compound 19h]  melting point  115 to 116 °C

Q) Consider the compound COc1ccc(COC(=O)Nc2nc3ccccc3s2)cc1 [Compound 16a] and give its measured melting point.
A) 141 to 143 °C

Q) Consider the compound "COc1ccc(/C=C/C(=O)Nc2nc3ccccc3s2)cc1" and give its measured melting point.
A) 252 to 254 °C

Q) Consider the compound c1ccc2c(OCCNc3nc4ccccc4s3)cccc2c1 [Compound 25b] and give its measured melting point.
A) 170 to 173 °C

Q) Consider the compound "O=C(NCCCc1ccc2ccccc2c1)c1nc2ccccc2s1" and give its measured melting point.
A) 48 to 50 °C

Q) Consider the compound c1ccc2cc(CCCNc3nc4ccccc4o3)ccc2c1 [Compound 23a] and give its measured melting point.
A) 128 to 130 °C

Q) Consider the compound O=C(Nc1nc2ccccc2s1)OCc1ccc2ccccc2c1 [Compound 16b] and give its measured melting point.
A) 209 to 211 °C

Q) Consider the compound c1ccc2cc(OCCNc3nc4ccccc4s3)ccc2c1 [Compound 25a] and give its measured melting point.
A) 170 to 172 °C

Q) Consider the compound "O=C(CCCc1ccc2ccccc2c1)Nc1nc2ccccc2o1" and give its measured melting point.
A) 52 to 55 °C

Q) Consider the compound c1ccc(CCCNc2nccs2)cc1 [Compound 19f, N-(3-Phenylpropyl)Thiazol-2-Amine] and give its measured melting point.
A) 83 to 84 °C

---

- Tested on: PGE2 generation in rat mesangial cells
- Procedure Text: Suppression of IL-1β/forskolin-stimulated PGE2 generation in rat renal mesangial cells
- Type: cell-based
- Test Conditions: Rattus norvegicus, Mesangial cell, 24 h, 3 μM; 1 nM IL-1β plus 5 μM forskolin
We begin with a simple list: items and their reported inhibition at 3 µM.

Solved cases (5 shown):
> print(dat)
                                   compound         result.type  measured
1  c1ccc2cc(OCCNc3nc4ccccc4o3)ccc2c1 [Compound 23c]  inhibition at 3 µM     > 80%
2       O=C(CCc1ccc2ccccc2c1)Nc1nc2ccccc2s1  inhibition at 3 µM     > 80%
3         COc1ccc(CCC(=O)Nc2nc3ccccc3s2)cc1  inhibition at 3 µM     > 80%
4  c1ccc(CCCNc2nc3ccccc3s2)cc1 [Compound 19b]  inhibition at 3 µM     > 80%
5  c1ccc2cc(CCCNc3nc4ccccc4o3)ccc2c1 [Compound 23a]  inhibition at 3 µM     > 80%

Turning now to a further record.
Q) Entry c1ccc2cc(CCCNc3nc4ccccc4s3)ccc2c1 [Compound 19a] , system PGE2 generation in rat mesangial cells: what inhibition at 3 µM was measured?
A) > 80%
